Items are presented alongside their recorded pKi.
- TESTED SYSTEM: T1, human plasma Kallikrein (human, UniProt P03952 20-638, limits assumed)
- T1 construct: also called hPK; human PK
- T1 sequence (P03952 20-638 limits assumed): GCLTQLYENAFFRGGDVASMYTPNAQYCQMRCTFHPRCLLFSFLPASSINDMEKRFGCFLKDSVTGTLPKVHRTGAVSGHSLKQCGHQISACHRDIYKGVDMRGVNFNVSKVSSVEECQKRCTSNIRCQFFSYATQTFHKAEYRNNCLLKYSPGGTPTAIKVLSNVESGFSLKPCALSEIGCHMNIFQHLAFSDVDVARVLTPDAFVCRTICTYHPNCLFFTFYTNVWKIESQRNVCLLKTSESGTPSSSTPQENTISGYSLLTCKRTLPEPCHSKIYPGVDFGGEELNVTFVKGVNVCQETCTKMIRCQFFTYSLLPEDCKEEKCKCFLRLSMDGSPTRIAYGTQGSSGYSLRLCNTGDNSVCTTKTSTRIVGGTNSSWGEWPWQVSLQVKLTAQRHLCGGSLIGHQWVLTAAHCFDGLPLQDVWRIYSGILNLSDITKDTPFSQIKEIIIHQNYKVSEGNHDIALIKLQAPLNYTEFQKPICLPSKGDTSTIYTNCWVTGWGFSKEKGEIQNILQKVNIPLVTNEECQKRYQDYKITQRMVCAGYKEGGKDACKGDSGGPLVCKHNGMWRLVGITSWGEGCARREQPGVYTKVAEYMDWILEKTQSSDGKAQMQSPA
- TEST NAME: enzyme inhibition assay
pKi: −log10 of the molar value. Numbered stars: 1 amine (or outer) side, 2 acyl side, 3 side chain; on linkers, the order of the positions; unused ones are H or OH. Bridge positions count the residues as written; N and C are the ends. Ends that are not written are not given here. TBMB = c1c(C[*:1])cc(C[*:3])cc1C[*:2]

BINDER: ACFKHCRVACA (linker 2-6-10 via TBMB, also called PK123) [3B8]
pKi: 9.02

BINDER: ACFNKCRVNCA (linker 2-6-10 via TBMB; not fully specified (N-terminus, C-terminus), also called PK121) [06-64 (3x3 peptide of Table 3)]
pKi: 8.32

BINDER: ACFPKCRVACA (linker 2-6-10 via TBMB, also called PK122) [3A3]
pKi: 7.37
